Compiled record: IC50 values for UniProt:P07949 across several sources.

Examples from the recorded data:
For reference, reported IC50 for "NC(=O)c1cccc(-c2ccnc3[nH]cc(C(=O)c4ccccc4F)c23)c1" stands at ≤ 10 µM

Summary for this molecule, "CS(=O)(=O)Nc1ccc(F)c(C(=O)c2c[nH]c3ncc(-c4cccc(C(N)=O)c4)cc23)c1F" : IC50 is ≤ 10 µM

# molecule "Cc1cc(Nc2cc(C)c(F)c(N3CC(C(=O)N(C)[C@@H](C)c4ccc(-n5cc(F)cn5)nc4)C3)n2)n[nH]1" ; its IC50 = < 0.01 µM

Next:
// field: IC50; key: "COc1ccc(NC(=O)C23CC4CC(C2)N(c2cnc(-c5cc(-c6cnn(C)c6)cn6ncc(C#N)c56)cn2)C(C4)C3)cn1" ; value = ≤ 0.01 µM

###

pIC50: −log10 of the molar value.
Literature pIC50 values, system: Proto-oncogene tyrosine-protein kinase receptor Ret (Homo sapiens).

Examples with answers:
Measured pIC50 for this entry "CC(C)(O)COc1cc(-c2cnc(N3C4CC5CC3CC(N)(C5)C4)cn2)c2c(C#N)cnn2c1" on Proto-oncogene tyrosine-protein kinase receptor Ret (Homo sapiens): 7.30 to 8.00

Observed pIC50, Proto-oncogene tyrosine-protein kinase receptor Ret (Homo sapiens), "Cn1cc(-c2cc(-c3cnc(N4C[C@@H]5[C@@H](CNC(=O)c6ncccc6Cl)[C@@H]5C4)cn3)c3c(C#N)cnn3c2)cn1" : ≥ 8.00

Observed pIC50 on Proto-oncogene tyrosine-protein kinase receptor Ret (Homo sapiens), entry "COc1cc2ncnc(Oc3ccc(NC(=O)NC4CC4)cc3)c2cc1OC" , equals 7.92

The measured pIC50 that "Cc1ccc(F)cc1C(=O)c1c[nH]c2nccc(-c3cccc(S(C)(=O)=O)c3)c12" showed for Proto-oncogene tyrosine-protein kinase receptor Ret (Homo sapiens) is ≥ 5.00

Reported Proto-oncogene tyrosine-protein kinase receptor Ret (Homo sapiens) pIC50 for item "COc1cccc(-c2nn([C@@H]3CCN(C(=O)/C=C/CN(C)C4CCC4)C3)c3ncnc(N)c23)c1" was < 6.00

The observed pIC50 for "COc1ccc(NC(=O)[C@H]2[C@@H]3CN(c4ccc(-c5cc(OCC(C)(C)O)cn6ncc(C#N)c56)cn4)C[C@@H]32)cn1" when tested with Proto-oncogene tyrosine-protein kinase receptor Ret (Homo sapiens) stands at ≥ 8.00

Could you now consider this next compound?
Measured pIC50 (Proto-oncogene tyrosine-protein kinase receptor Ret (Homo sapiens)), entry CC(C)C(O)C(=O)N[C@H]1[C@@H]2CN(c3ccc(-c4cc(-c5cnn(C)c5)cn5ncc(C#N)c45)cc3)C[C@@H]21 (stereo partly shown) : ≥ 8.00

###

Multi-source literature compilation: pIC50 on Proto-oncogene tyrosine-protein kinase receptor Ret (Homo sapiens, UniProt P07949).
pIC50: −log10 of the molar value.

Record "COC1(C(=O)N[C@@H](C)c2ccc(-n3cc(F)cn3)nc2)CN(c2cc(C)cc(Nc3cc(C)[nH]n3)n2)C1" / Proto-oncogene tyrosine-protein kinase receptor Ret (Homo sapiens, UniProt P07949), pIC50 recorded as > 8.00

"COCc1cccc2[nH]c(-c3n[nH]c4ncc(-c5cncc6ccccc56)cc34)nc12" tested on Proto-oncogene tyrosine-protein kinase receptor Ret (Homo sapiens, UniProt P07949) gave pIC50: < 5.00

Summary line: "COC1(C(=O)NCc2ccc(N3CCC(F)(F)C3)nc2)CN(c2nc(C)cc(Nc3cc(C)[nH]n3)n2)C1" , Proto-oncogene tyrosine-protein kinase receptor Ret (Homo sapiens, UniProt P07949), reported pIC50 = 7.00 to 8.00

Entry "O=C(Nc1ccc(F)c(Cc2c[nH]c3ncc(-c4cccnc4)cc23)c1F)OCc1ccccc1" ; assay system Proto-oncogene tyrosine-protein kinase receptor Ret (Homo sapiens, UniProt P07949); pIC50 recorded at ≥ 5.00

// assay Proto-oncogene tyrosine-protein kinase receptor Ret (Homo sapiens, UniProt P07949), entry "C#C[C@@](C)(O)COc1cc(-c2ccc(N3CC4CC(C3)N4Cc3ccc(OC)nc3)nc2)c2c(C#N)cnn2c1" , pIC50 value = 9.47

Recorded pIC50 for C[C@@]1(NC(=O)c2ncccc2Cl)C[C@H]2CN(c3ccc(-c4cc(OCC5CNCCO5)cn5ncc(C#N)c45)cn3)C[C@H]2C1 (some centres unmarked) on Proto-oncogene tyrosine-protein kinase receptor Ret (Homo sapiens, UniProt P07949) was ≥ 8.00

Lab note: molecule "Cn1cc(-c2cc(-c3ccc(N4C[C@@H]5C[C@@](C)(NS(=O)(=O)c6c(F)cccc6Cl)C[C@@H]5C4)nc3)c3c(C#N)cnn3c2)cn1" tested on Proto-oncogene tyrosine-protein kinase receptor Ret (Homo sapiens, UniProt P07949); recorded pIC50 was ≥ 8.00

Field pIC50 (system: Proto-oncogene tyrosine-protein kinase receptor Ret (Homo sapiens, UniProt P07949)) for entry "COc1cc2ncnc(Oc3ccc(NC(=O)N4CCCC4)cc3)c2cc1OC" = 6.99

The molecule "CC(C)(O)COc1cc(-c2ccc(N3C[C@@H]4[C@@H](CNS(=O)(=O)c5c(F)cccc5Cl)[C@@H]4C3)nc2)c2c(C#N)cnn2c1" , tested on Proto-oncogene tyrosine-protein kinase receptor Ret (Homo sapiens, UniProt P07949), showed pIC50 of 7.30 to 8.00

The recorded pIC50 with Proto-oncogene tyrosine-protein kinase receptor Ret (Homo sapiens, UniProt P07949) for "CCOc1cc(-c2ncc(NC(=O)Nc3ccc(CCN4CCCC4)c(C(F)(F)F)c3)c(C)n2)c[nH]c1=O" was > 7.00

The molecule "COc1ccc(C(=O)NC[C@@H]2[C@H]3CN(c4cnc(-c5cc(-c6cnn(C)c6)cn6ncc(C#N)c56)cn4)C[C@@H]23)cn1" , when measured on Proto-oncogene tyrosine-protein kinase receptor Ret (Homo sapiens, UniProt P07949), yielded pIC50 of ≥ 8.00

Entry "Cc1cc(C(=O)c2c[nH]c3ncc(-c4cccc(C(N)=O)c4)cc23)nn1C" , Proto-oncogene tyrosine-protein kinase receptor Ret (Homo sapiens, UniProt P07949) data, pIC50 value: ≥ 5.00

# lookup: "COCc1cccc2[nH]c(-c3n[nH]c4ncc(-c5cnc6ccccc6c5)cc34)nc12" on Proto-oncogene tyrosine-protein kinase receptor Ret (Homo sapiens, UniProt P07949), pIC50 = ~5.00

# pIC50 measured on Proto-oncogene tyrosine-protein kinase receptor Ret (Homo sapiens, UniProt P07949) for item "COCCOCCOCCOCCOCCOCCOCCNC(=O)c1c(C)[nH]c(/C=C2\C(=O)Nc3ccc(F)cc32)c1C" = 6.21
